// data source = patent WO2010064089A1

Attribute: inhibition of HGF-induced proliferation of NCI-H441 cells (Figure 14A)
- studySystem: human c-Met receptor on tumor cells (A549, NCI-H441, BxPC3) (human, UniProt P08581 25-1390)
- assayDetails: cell-based or functional assay

Examples with their reported inhibition of HGF-induced proliferation of NCI-H441 cells (Figure 14A) follow.
# binder, reportedResult
data = [
    ("[224G11][Hz3] (antibody, V domains shown) VH: QVQLVQSGAEVKKPGASVKVSCKASGYIFTAYTMHWVRQAPGQGLEWMGWIKPNNGLANYAQKFQGRVTMTRDTSISTAYMELSRLRSDDTAVYYCARSEITTEFDYWGQGTLVTVSS VL: DIVMTQSPDSLAVSLGERATINCKSSESVDSYANSFLHWYQQKPGQPPKLLIYRASTRESGVPDRFSGSGSGTDFTLTISSLQAEDVAVYYCQQSKEDPLTFGGGTKVEIKR", "~35%"),
    ("[224G11][Hz1] (antibody, V domains shown) VH: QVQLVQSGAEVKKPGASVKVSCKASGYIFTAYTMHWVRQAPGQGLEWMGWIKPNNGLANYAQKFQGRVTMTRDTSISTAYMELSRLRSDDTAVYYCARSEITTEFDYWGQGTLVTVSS VL: DIVLTQSPDSLAVSLGERATINCKSSESVDSYANSFMHWYQQKPGQPPKLLIYRASTRESGVPDRFSGSGSRTDFTLTISSLQAEDVAVYYCQQSKEDPLTFGGGTKVEIKR", "~46%"),
]

Please turn your attention to the following entry.
### Prompt May I ask what inhibition of HGF-induced proliferation of NCI-H441 cells (Figure 14A) has been recorded for [224G11][Hz2] (antibody, V domains shown) VH: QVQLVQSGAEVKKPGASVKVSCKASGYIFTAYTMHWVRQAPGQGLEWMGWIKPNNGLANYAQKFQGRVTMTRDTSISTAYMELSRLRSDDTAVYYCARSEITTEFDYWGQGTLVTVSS VL: DIVMTQSPDSLAVSLGERATINCKSSESVDSYANSFMHWYQQKPGQPPKLLIYRASTRESGVPDRFSGSGSGTDFTLTISSLQAEDVAVYYCQQSKEDPLTFGGGTKVEIKR ?
### Response ~30%
